experimental_system: T1, CCR4 (human), P51679
T1 chain: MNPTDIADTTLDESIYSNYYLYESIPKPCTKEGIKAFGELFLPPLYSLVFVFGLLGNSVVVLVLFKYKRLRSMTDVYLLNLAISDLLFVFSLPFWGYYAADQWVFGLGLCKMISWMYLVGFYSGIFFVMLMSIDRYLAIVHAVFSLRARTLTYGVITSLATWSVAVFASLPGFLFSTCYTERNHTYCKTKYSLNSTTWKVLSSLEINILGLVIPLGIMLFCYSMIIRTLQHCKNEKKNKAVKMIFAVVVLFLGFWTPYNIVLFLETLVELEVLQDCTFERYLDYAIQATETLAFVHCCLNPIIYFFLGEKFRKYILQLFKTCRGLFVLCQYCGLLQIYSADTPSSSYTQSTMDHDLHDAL
assay_overview: biotin-labeled peptide at 10 µM on HOS transformants, 125I-streptavidin
pKd: −log10 of the molar value. No end group written: not given here.
readout_name: pKd

Asked: Tell me the measured pKd of CLDPKQKWIQC (not fully specified (N-terminus); cysteine pairing not given here) [N-terminal biotin conjugate of the sequence n'-…-c'] , please.
Given back: < 5.00
